Target: human GPC3 on cells (human, UniProt P51654 25-554)
Test: cell-based or functional assay
quantity.name: EC50 of ADCC signaling (Jurkat-hCD16a-NFAT luciferase reporter), Huh-7 cells (nM)
API: value field is a number in nM; no unit string.

Determine from records and report EC50 of ADCC signaling (Jurkat-hCD16a-NFAT luciferase reporter), Huh-7 cells for 52H5D3B8-6#-VH2+VL3 (antibody, V domains shown, humanized) VH: QVQLVQSGAEVKKPGASVKVSCKASGYTFTDYEMHWVRQAPGQGLEWIGAIHPGSGGTAYNQKFKGRVTMTADTSTSTVYMELSSLRSEDTAVYYCTRYYSYAYWGQGTLVTVSS VL: DIVMTQTPLSLSVTPGQPASISCRSSQSLVHSNGNTYLQWYLQKPGQSPKLLIYKVSNRFSGVPDRFSGSGSGTDFTLKISRVEAEDVGVYYCFQSIHVPYTFGGGTKLEIK
0.265
